Target: T1, 14-3-3η (human, UniProt Q04917 1-246)
T1 chain: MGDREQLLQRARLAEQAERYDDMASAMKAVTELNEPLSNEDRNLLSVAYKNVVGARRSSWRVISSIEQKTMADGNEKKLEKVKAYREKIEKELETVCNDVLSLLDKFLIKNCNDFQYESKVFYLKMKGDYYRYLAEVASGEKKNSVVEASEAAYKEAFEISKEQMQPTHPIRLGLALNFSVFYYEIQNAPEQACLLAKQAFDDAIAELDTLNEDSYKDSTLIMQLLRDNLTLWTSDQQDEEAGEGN
Assay: FP
Non-standard residues stand in square brackets, D forms with d. No end group written: not given here. pS = N[C@@H](COP(=O)(O)O)C(=O)O
Give measured Kd for each item. Keep answers brief.
Kindly answer with a numeric value in µM, unit omitted.

Which Kd value is on record for SFTDHQRLMKRRK[pS] (peptide, UniProt Q9NPC2 360-374, looked up, also: fluorescein label, position not given here, TASK-3 (KCNK9), human, C-terminal peptide with phosphorylated S373 but lacking the C-terminal valine V374; ends at pS373; source: synthetic peptide, bought: Peps4Life Sciences) [TASK-3 pS373 ΔV374 C-terminal fluorescent peptide] ? 1.6

Which Kd value is on record for SLSTFRGLMKRRS[pS]V (also: fluorescein label, position not given here) [TASK-1 pS393 C-terminal fluorescent peptide (last 15 amino acids)] ? 9.2
